# log10(IC50) per record follows
# target.system: B-Raf(V599E) kinase (Homo sapiens, UniProt P15056, V600E)
# protocol: B-Raf(V599E) kinase assay B1 (construct 1, MEK1 substrate, coupled spectrophotometric)
# Format: biochemical
# Sequence (P15056 with tags, fused parts or gaps V600E): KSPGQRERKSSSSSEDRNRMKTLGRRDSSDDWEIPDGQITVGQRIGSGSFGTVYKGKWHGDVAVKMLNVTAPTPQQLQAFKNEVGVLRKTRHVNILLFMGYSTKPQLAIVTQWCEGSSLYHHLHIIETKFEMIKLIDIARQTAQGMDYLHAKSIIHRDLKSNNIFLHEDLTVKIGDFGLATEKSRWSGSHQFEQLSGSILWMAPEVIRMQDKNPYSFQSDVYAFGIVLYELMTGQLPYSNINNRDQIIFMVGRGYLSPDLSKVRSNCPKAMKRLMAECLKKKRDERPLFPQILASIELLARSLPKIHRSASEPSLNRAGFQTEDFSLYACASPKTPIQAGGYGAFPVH
Base-10 log of IC50, unit nM.

- CC(C)(C)c1cc(NC(=O)Nc2cccc(Cl)c2Cl)n(-c2cc(CCO)c3ccccc3c2)n1: 0.63
- CC(C)(C)c1cc(NC(=O)Nc2cc(F)cc(F)c2F)n(-c2cc(CN)c3ccccc3c2)n1: 0.70
- CC(C)(C)c1cc(NC(=O)Nc2cccc(Oc3cccnc3)c2)n(-c2cccc(-c3cccnc3)c2)n1: 1.04
- CC(C)(C)c1cc(NC(=O)Nc2ccc(F)cc2F)n(-c2ccc3c(c2)C(=O)NCC3)n1: 1.51
- CC(C)(C)c1cc(NC(=O)Nc2ccc(F)c(F)c2F)n(-c2cccc(CC(=O)O)c2)n1: 1.15
- CC(C)(C)c1cc(NC(=O)NC2CCCCC2)n(-c2cccc(CC(N)=O)c2)n1: 1.57
- CC(=O)N1CCc2cc(-n3nc(C(C)(C)C)cc3NC(=O)Nc3cccc(Cl)c3Cl)ccc21: 0.32
- CC(C)(C)c1cc(NC(=O)Nc2ccccc2F)n(-c2cc(CO)c3ccccc3c2)n1: 0.72

Identify measured log10(IC50) associated with CC(C)(C)c1cc(NC(=O)Nc2ccc(F)c(F)c2F)n(-c2ccc3ncccc3c2)n1
0.71

Identify measured log10(IC50) associated with COc1cccc(-n2nc(C(C)(C)C)cc2NC(=O)Nc2ccc(F)cc2)c1
1.72

Identify measured log10(IC50) associated with CC(C)(C)c1cc(NC(=O)Nc2ccccc2)n(-c2cc(CO)c3ccccc3c2)n1
1.08

Identify measured log10(IC50) associated with CC(C)(C)c1cc(NC(=O)Nc2cc(F)c(F)cc2F)n(-c2cccc(CC(=O)O)c2)n1
0.90

Identify measured log10(IC50) associated with CC(C)(C)c1cc(NC(=O)Nc2cccc(Cl)c2Cl)n(-c2ccc3c(c2)CN[C@H](C(N)=O)C3)n1
0.30

Identify measured log10(IC50) associated with CC(C)(C)c1cc(NC(=O)Nc2cccc(Cl)c2Cl)n(-c2ccc(CC(=O)NCC(O)CO)cc2)n1 (stereo not shown)
1.04

Identify measured log10(IC50) associated with CC(C)(C)c1ncc(NC(=O)Nc2cccc(Oc3ccccc3)c2)c(-c2ccccc2)n1
2.44

Identify measured log10(IC50) associated with CC(C)(C)c1cc(NC(=O)Nc2cccc(Br)c2)n(-c2cccc(CN)c2)n1
1.95

Identify measured log10(IC50) associated with CC(=O)OCc1cccc(-n2nc(C(C)(C)C)cc2NC(=O)Nc2cccc(Cl)c2Cl)c1
0.72

Identify measured log10(IC50) associated with CC(C)(C)c1cc(NC(=O)Nc2cccc(Cl)c2Cl)n(-c2cc(CO)c3ccccc3c2)n1
0.41

Identify measured log10(IC50) associated with Cn1[nH]c(=O)n(Cc2cccc(-n3nc(C(C)(C)C)cc3NC(=O)Nc3cccc(Cl)c3Cl)c2)c1=O
1.04

====

# target.system: B-Raf(V599E) kinase (Homo sapiens, UniProt P15056, V600E)
# protocol: B-Raf(V599E) kinase assay B1 (construct 1, MEK1 substrate, coupled spectrophotometric)
# Format: biochemical
pIC50: −log10 of the molar value. Where a name gives a salt, the structure may show the parent alone.
Note to self: values exactly at 8 are yes. So pIC50 at or above 8 is yes, below is no.

Reported pIC50 at or above 8? CC(C)(C)c1cc(NC(=O)Nc2cccc(Cl)c2Cl)n(-c2ccc(C(=N)NO)cc2)n1
yes

Reported pIC50 at or above 8? CC(C)(C)c1cc(NC(=O)Nc2cccc(Cl)c2Cl)n(-c2ccc3[nH]c(=O)ccc3c2)n1
yes

Reported pIC50 at or above 8? Cc1ccc(NC(=O)Nc2cc(C(C)(C)C)nn2-c2ccc3c(c2)CCNC3)cc1Nc1nccc(-c2cccnc2)n1 [Example 153, dihydrochloride]
no

====

# log10(IC50) per record follows
# target.system: B-Raf(V599E) kinase (Homo sapiens, UniProt P15056, V600E)
# protocol: B-Raf(V599E) kinase assay B1 (construct 1, MEK1 substrate, coupled spectrophotometric)
# Assay type: biochemical
Base-10 log of IC50, unit µM.

• Cn1c(=O)c(-c2cccc(NC(=O)Nc3cc(C(C)(C)C)nn3-c3ccc4c(c3)CCC(=O)N4)c2)cc2cncnc21 [Example 132] = -2.32
• CC(C)(C)c1cc(NC(=O)Nc2cccc(Cl)c2Cl)n(-c2ccc3c(c2)N(S(C)(=O)=O)CC3)n1 [Example 113] = -2.48
• CC(C)(C)c1cc(NC(=O)Nc2ccc(Cl)cc2)n(-c2cccc(CN3C(=O)C(=O)N(c4ccccc4)C3=O)c2)n1 [Example 269] = -0.55
• CNC(=O)c1cc(Oc2ccc(NC(=O)Nc3cc(C(C)(C)C)nn3-c3ccc4nc(NCCN)ccc4c3)cc2)ccn1 [Example 172] = -1.54

Param request: log10(IC50) | system B-Raf(V599E) kinase (Homo sapiens, UniProt P15056, V600E) | item CC(C)(C)c1cc(NC(=O)Nc2cccc(Cl)c2Cl)n(-c2ccc3c(c2)CC(C(N)=O)NC3)n1 (stereo not drawn) [Example 188]
-2.24

Param request: log10(IC50) | system B-Raf(V599E) kinase (Homo sapiens, UniProt P15056, V600E) | item CC(C)(C)c1cc(NC(=O)Nc2cccc(Cl)c2Cl)n(-c2ccc3c(c2)CCN3)n1 [Example 106]
-2.44

Param request: log10(IC50) | system B-Raf(V599E) kinase (Homo sapiens, UniProt P15056, V600E) | item CC(C)(C)c1cc(NC(=O)Nc2cccc(Cl)c2Cl)n(-c2ccc3c(c2)CCN(S(C)(=O)=O)CC3)n1 [Example 336]
-2.70

Param request: log10(IC50) | system B-Raf(V599E) kinase (Homo sapiens, UniProt P15056, V600E) | item CC(C)(C)c1cc(NC(=O)Nc2cccc(F)c2F)n(-c2cc(CC(N)=O)c3ccccc3c2)n1 [Example 90]
-2.41

Param request: log10(IC50) | system B-Raf(V599E) kinase (Homo sapiens, UniProt P15056, V600E) | item CC(C)(C)c1cc(NC(=O)NC2CCCC2)n(-c2cc(CC(N)=O)c3ccccc3c2)n1 [Example 93]
-1.22

Param request: log10(IC50) | system B-Raf(V599E) kinase (Homo sapiens, UniProt P15056, V600E) | item CC(C)(C)c1cc(NC(=O)Nc2ccc(Oc3ccccc3)cc2)n(-c2ccc3c(c2)CCNC3)n1 [Example 143]
-1.85

====

# target.system: B-Raf(V599E) kinase (Homo sapiens, UniProt P15056, V600E)
# protocol: B-Raf(V599E) kinase assay B2 (construct 2 at 2 nM, 1 h pre-incubation)
# Format: biochemical
# Sequence (P15056 433-726 V600E): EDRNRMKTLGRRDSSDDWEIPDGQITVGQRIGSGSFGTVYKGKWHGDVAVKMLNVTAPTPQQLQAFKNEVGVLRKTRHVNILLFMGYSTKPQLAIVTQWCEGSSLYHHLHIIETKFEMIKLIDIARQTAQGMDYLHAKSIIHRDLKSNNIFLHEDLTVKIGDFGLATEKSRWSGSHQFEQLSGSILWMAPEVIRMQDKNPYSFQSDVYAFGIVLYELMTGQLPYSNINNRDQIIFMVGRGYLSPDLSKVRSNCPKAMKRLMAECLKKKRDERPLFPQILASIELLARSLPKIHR
Under this convention, Y denotes IC50 strictly below 0.2 µM and N denotes IC50 at or above 0.2 µM.

Examples with answers:
• CC(C)(C)c1cc(NC(=O)Nc2cccc(Cl)c2Cl)n(-c2ccc3[nH]ccc3c2)n1 = N
• CC(C)(C)c1cc(NC(=O)Nc2cccc(Oc3cccnc3)c2)n(-c2ccc3c(c2)CC(C(=O)O)NC3)n1 (stereo not shown) = N
• CC(C)(C)c1cc(NC(=O)Nc2ccc(Cl)cc2)n(-c2cc(CNC(=O)NS(C)(=O)=O)c3ccccc3c2)n1 = N
• CC(C)(C)c1cc(NC(=O)Nc2ccc(F)c(F)c2F)n(-c2cc(CC(=O)NCC(O)CO)c3ccccc3c2)n1 (stereo not shown) = N
• CC(C)(C)c1cc(NC(=O)Nc2cccc(Cl)c2Cl)n(-c2ccc3[nH]ncc3c2)n1 = Y

Confirm or reject: IC50 of CC(C)(C)c1cc(NC(=O)Nc2cccc(Cl)c2Cl)n(-c2cccc(-c3cn[nH]c3)c2)n1 lies strictly below 0.2 µM
Y

Confirm or reject: IC50 of CC(C)(C)c1cc(NC(=O)Nc2cc(F)cc(F)c2F)n(-c2cc(CC(N)=O)c3ccccc3c2)n1 lies strictly below 0.2 µM
N

====

# IC50 per record follows
# target.system: KDR kinase (Homo sapiens, UniProt P35968, DEL940-989/E990V)
# Sequence (P35968 with tags, fused parts or gaps DEL940-989/E990V): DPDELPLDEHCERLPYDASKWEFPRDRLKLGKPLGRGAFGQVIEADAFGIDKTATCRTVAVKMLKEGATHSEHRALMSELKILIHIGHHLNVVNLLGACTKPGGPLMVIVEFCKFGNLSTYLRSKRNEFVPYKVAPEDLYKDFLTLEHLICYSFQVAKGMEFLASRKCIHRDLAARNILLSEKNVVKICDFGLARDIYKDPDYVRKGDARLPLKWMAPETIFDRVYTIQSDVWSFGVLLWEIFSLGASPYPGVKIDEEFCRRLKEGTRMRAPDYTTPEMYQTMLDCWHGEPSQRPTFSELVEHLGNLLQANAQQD
# protocol: KDR kinase assay K2 (as K1, 2.1 nM enzyme, 2 h pre-incubation, 1.0 mM ATP)
# Type: biochemical
# reported.conditions: Method K2; read-out: KDR Data (IC50)
# Experimental: IC50 values were calculated from a series of percent inhibition values determined at a range of inhibitor concentrations using software routines as implemented in the GraphPad Prism software package.
API: value field is a number in µM; no unit string.

Examples with their reported IC50 follow.
- COc1cccc(-n2nc(C(C)(C)C)cc2NC(=O)Nc2ccccc2F)c1: 3.5
- CC(C)(C)c1cc(NC(=O)N[C@H]2CCc3ccccc32)n(-c2ccc3c(c2)CCNC3)n1: 34.4
- CNC(=O)C1Cc2cc(-n3nc(C(C)(C)C)cc3NC(=O)Nc3cccc(Oc4cccnc4)c3)ccc2CN1 (stereo not shown): 0.0081

Moving on to the next compound.
Identify measured IC50 associated with COc1cccc(-n2nc(C(C)(C)C)cc2NC(=O)Nc2ccc(C#N)cc2)c1
3.4
